- Test system: Hepatocyte
- assayNotes: Hepatoprotective activity in mouse hepatocytes assessed protection against D-galactosamine/TNFalpha-induced cell death at 50 uM administered before 30 mins of TNFalpha challenge measured after 18 hrs
- Type: functional
The molecules listed here are annotated with their Activity.
quantityMeasured: Activity (%)

molecule: CC(C)=CCC[C@](C)(O[C@@H]1O[C@H](CO)[C@@H](O)[C@H](O)[C@H]1O)[C@H]1CC[C@]2(C)[C@@H]1[C@H](O)C[C@@H]1[C@@]3(C)CC[C@H](O)C(C)(C)[C@@H]3[C@@H](O[C@@H]3O[C@H](CO)[C@@H](O)[C@H](O)[C@H]3O)C[C@]12C [GINSENOSIDE RG1]
experimentalResult: 16.7
--
molecule: CC(=O)OC[C@H]1O[C@@H](O[C@H]2C[C@]3(C)[C@H](C[C@@H](O)[C@@H]4[C@@H]([C@]5(C)CC[C@@H](C(C)(C)O)O5)CC[C@]43C)[C@@]3(C)CC[C@H](O)C(C)(C)[C@H]23)[C@H](O[C@@H]2OC[C@@H](O)[C@H](O)[C@H]2O)[C@@H](O)[C@@H]1O [GINSENOSIDE R2]
experimentalResult: 19
--
molecule: CC(C)=CCC[C@](C)(O[C@@H]1O[C@H](CO[C@@H]2O[C@@H](CO)[C@H](O)[C@H]2O)[C@@H](O)[C@H](O)[C@H]1O)[C@H]1CC[C@]2(C)[C@@H]1[C@H](O)C[C@@H]1[C@@]3(C)CC[C@H](O[C@@H]4O[C@H](CO)[C@@H](O)[C@H](O)[C@H]4O[C@@H]4O[C@H](CO)[C@@H](O)[C@H](O)[C@H]4O)C(C)(C)[C@@H]3CC[C@]12C [GINSENOSIDE RC]
experimentalResult: 3.2
--
molecule: CC(C)=CC/C=C(\C)[C@H]1CC[C@]2(C)[C@@H]1[C@H](O)C[C@@H]1[C@@]3(C)CC[C@H](O)C(C)(C)[C@@H]3[C@@H](O[C@@H]3O[C@H](CO)[C@@H](O)[C@H](O)[C@H]3O)C[C@]12C [GINSENOSIDE RH4]
experimentalResult: 8
--
molecule: CC(C)=CCC[C@](C)(O[C@@H]1O[C@H](CO)[C@@H](O)[C@H](O)[C@H]1O)[C@H]1CC[C@]2(C)[C@@H]1[C@H](O)C[C@@H]1[C@@]3(C)CC[C@H](O)C(C)(C)[C@@H]3[C@@H](O[C@@H]3O[C@H](CO)[C@@H](O)[C@H](O)[C@H]3O[C@@H]3O[C@@H](C)[C@H](O)[C@@H](O)[C@H]3O)C[C@]12C [GINSENOSIDE RE]
experimentalResult: 8.9
--
molecule: CC(C)(O)[C@@H]1CC[C@@](C)([C@H]2CC[C@]3(C)[C@@H]2[C@H](O)C[C@@H]2[C@@]4(C)CC[C@H](O)C(C)(C)[C@@H]4[C@@H](O[C@@H]4O[C@H](CO)[C@@H](O)[C@H](O)[C@H]4O)C[C@]23C)O1
experimentalResult: 13.6

* * *

- Tested on: Hepatocyte
- assayNotes: Hepatoprotective activity in mouse hepatocytes assessed protection against D-galactosamine/TNFalpha-induced cell death at 200 uM administered before 30 mins of TNFalpha challenge measured after 18 hrs
- Type: functional
quantityMeasured: Activity (%)

molecule: CC1(C)O[C@](C)([C@H]2CC[C@]3(C)[C@@H]2[C@H](O)C[C@@H]2[C@@]4(C)CC[C@H](O)C(C)(C)[C@@H]4[C@@H](O[C@@H]4O[C@H](CO)[C@@H](O)[C@H](O)[C@H]4O)C[C@]23C)CC[C@H]1O [GINSENOSIDE R10]
assayTarget: Hepatocyte
experimentalResult: 7.6

molecule: CC(C)=CCC[C@](C)(O[C@@H]1O[C@H](CO[C@@H]2OC[C@H](O)[C@H](O)[C@H]2O)[C@@H](O)[C@H](O)[C@H]1O)[C@H]1CC[C@]2(C)[C@@H]1[C@H](O)C[C@@H]1[C@@]3(C)CC[C@H](O[C@@H]4O[C@H](CO)[C@@H](O)[C@H](O)[C@H]4O[C@@H]4O[C@H](CO)[C@@H](O)[C@H](O)[C@H]4O)C(C)(C)[C@@H]3CC[C@]12C [GINSENOSIDE RB2]
assayTarget: Hepatocyte
experimentalResult: 43.3

molecule: CC(C)=CCC[C@](C)(O[C@@H]1O[C@H](CO[C@@H]2O[C@H](CO)[C@@H](O)[C@H](O)[C@H]2O)[C@@H](O)[C@H](O)[C@H]1O)[C@H]1CC[C@]2(C)[C@@H]1[C@H](O)C[C@@H]1[C@@]3(C)CC[C@H](O[C@@H]4O[C@H](CO)[C@@H](O)[C@H](O)[C@H]4O[C@@H]4O[C@H](CO)[C@@H](O)[C@H](O)[C@H]4O)C(C)(C)[C@@H]3CC[C@]12C [GINSENOSIDE RB1]
assayTarget: Hepatocyte
experimentalResult: 13.7

molecule: CC(=O)OC[C@H]1O[C@@H](O[C@H]2C[C@]3(C)[C@H](C[C@@H](O)[C@@H]4[C@@H]([C@]5(C)CC[C@@H](C(C)(C)O)O5)CC[C@]43C)[C@@]3(C)CC[C@H](O)C(C)(C)[C@H]23)[C@H](O[C@@H]2OC[C@@H](O)[C@H](O)[C@H]2O)[C@@H](O)[C@@H]1O [GINSENOSIDE R2]
assayTarget: Hepatocyte
experimentalResult: 61.3

molecule: CC(C)=CCC[C@](C)(O[C@@H]1O[C@H](CO)[C@@H](O)[C@H](O)[C@H]1O)[C@H]1CC[C@]2(C)[C@@H]1[C@H](O)C[C@@H]1[C@@]3(C)CC[C@H](O)C(C)(C)[C@@H]3[C@@H](O[C@@H]3O[C@H](CO)[C@@H](O)[C@H](O)[C@H]3O)C[C@]12C [GINSENOSIDE RG1]
assayTarget: Hepatocyte
experimentalResult: 26.2

molecule: C=C(C)C(=O)CC[C@](C)(O[C@@H]1O[C@H](CO)[C@@H](O)[C@H](O)[C@H]1O)[C@H]1CC[C@]2(C)[C@@H]1[C@H](O)C[C@@H]1[C@@]3(C)CC[C@H](O)C(C)(C)[C@@H]3[C@@H](O[C@@H]3O[C@H](CO)[C@@H](O)[C@H](O)[C@H]3O)C[C@]12C
assayTarget: Hepatocyte
experimentalResult: 20.5

molecule: CC(C)(O)[C@@H]1CC[C@@](C)([C@H]2CC[C@]3(C)[C@@H]2[C@H](O)C[C@@H]2[C@@]4(C)CC[C@H](O)C(C)(C)[C@@H]4[C@@H](O)C[C@]23C)O1 [PROTOPANAXATRIOL OXIDE II]
assayTarget: Hepatocyte
experimentalResult: 92.2

* * *

Activity: recorded values
- Test system: Hepatocyte
- assayNotes: Hepatoprotective activity in mouse hepatocytes assessed protection against D-galactosamine/TNFalpha-induced cell death at 200 uM administered before 30 mins of TNFalpha challenge measured after 18 hrs
- Type: functional

molecule: CC(C)=CC/C=C(\C)[C@H]1CC[C@]2(C)[C@@H]1[C@H](O)C[C@@H]1[C@@]3(C)CC[C@H](O)C(C)(C)[C@@H]3[C@@H](O[C@@H]3O[C@H](CO)[C@@H](O)[C@H](O)[C@H]3O)C[C@]12C [GINSENOSIDE RH4]
assayTarget: Hepatocyte
Activity (%): 35.1
//
molecule: CC(C)(O)[C@@H]1CC[C@@](C)([C@H]2CC[C@]3(C)[C@@H]2[C@H](O)C[C@@H]2[C@@]4(C)CC[C@H](O)C(C)(C)[C@@H]4[C@@H](O[C@@H]4O[C@H](CO)[C@@H](O)[C@H](O)[C@H]4O)C[C@]23C)O1
assayTarget: Hepatocyte
Activity (%): 39
//
molecule: CC1(C)[C@@H](O[C@H]2O[C@H](C(=O)O)[C@@H](O)[C@H](O)[C@H]2O[C@@H]2O[C@H](C(=O)O)[C@@H](O)[C@H](O)[C@H]2O)CC[C@]2(C)[C@H]3C(=O)C=C4[C@@H]5C[C@@](C)(C(=O)O)CC[C@]5(C)CC[C@@]4(C)[C@]3(C)CC[C@@H]12
assayTarget: Hepatocyte
Activity (%): 8.7
//
molecule: CC(C)=CCC[C@](C)(O[C@@H]1O[C@H](CO)[C@@H](O)[C@H](O)[C@H]1O)[C@H]1CC[C@]2(C)[C@@H]1[C@H](O)C[C@@H]1[C@@]3(C)CC[C@H](O)C(C)(C)[C@@H]3[C@@H](O[C@@H]3O[C@H](CO)[C@@H](O)[C@H](O)[C@H]3O[C@@H]3O[C@@H](C)[C@H](O)[C@@H](O)[C@H]3O)C[C@]12C [GINSENOSIDE RE]
assayTarget: Hepatocyte
Activity (%): 31.9
//
molecule: CC(C)(O)[C@@H]1CC[C@@](C)([C@H]2CC[C@]3(C)[C@@H]2[C@H](O)C[C@@H]2[C@@]4(C)CC[C@H](O)C(C)(C)[C@@H]4[C@@H](O[C@@H]4O[C@H](CO)[C@@H](O)[C@H](O)[C@H]4O[C@@H]4OC[C@@H](O)[C@H](O)[C@H]4O)C[C@]23C)O1 [MAJONOSIDE R2]
assayTarget: Hepatocyte
Activity (%): 35.5
//
molecule: CC(C)=CCC[C@](C)(O[C@@H]1O[C@H](CO)[C@@H](O)[C@H](O)[C@H]1O)[C@H]1CC[C@]2(C)[C@@H]1[C@H](O)C[C@@H]1[C@@]3(C)CC[C@H](O[C@@H]4O[C@H](CO)[C@@H](O)[C@H](O)[C@H]4O[C@@H]4O[C@H](CO)[C@@H](O)[C@H](O)[C@H]4O)C(C)(C)[C@@H]3CC[C@]12C [GINSENOSIDE RD]
assayTarget: Hepatocyte
Activity (%): 16.8
//
molecule: CC(C)=CCC[C@](C)(O)[C@H]1CC[C@]2(C)[C@@H]1[C@H](O)C[C@@H]1[C@@]3(C)CC[C@H](O)C(C)(C)[C@@H]3[C@@H](O[C@@H]3O[C@H](CO)[C@@H](O)[C@H](O)[C@H]3O)C[C@]12C [GINSENOSIDE RH1]
assayTarget: Hepatocyte
Activity (%): 34.3
